Tested on: SK-MEL-28
METHOD_NOTES: NCI tumour cell line growth inhibition, 48 h
Calls of active or inactive are those of the source. Cut-off read from the data, not from the text of the source: active = GI50 up to about 1.1 µM and inactive = higher.
Classes used: true (1) = active, false (0) = inactive

MOLECULE	EXPERIMENTAL_SYSTEM	ASSIGNED_CLASS
COc1c(C)cc2c(c1O)C1C3[C@H]4SC[C@@]5(NCCC6=C5NC5C=CC=CC65)C(=O)OCC(c5c6c(c(C)c(OC(C)=O)c54)OCO6)N3[C@@H](O)C(C2)N1C (some centres undefined)	SK-MEL-28	true (1)
OC(C#CCN1CCCC1)(c1ccccc1)c1ccccc1Cl (centres undefined)	SK-MEL-28	false (0)
O=C1OC(c2cccc(C(F)(F)F)c2)(c2cccc(C(F)(F)F)c2)c2ccc3ccccc3c21	SK-MEL-28	false (0)
O=C(Cc1ccccc1)NN1C(=O)/C(=C\c2ccccc2O)S/C1=N\c1ccccc1	SK-MEL-28	false (0)

---

Tested on: LOX IMVI
METHOD_NOTES: NCI tumour cell line growth inhibition, 48 h
The source made the active and inactive calls. No stated cut-off is given here; in the data, active = GI50 up to about 1.1 µM and inactive = higher.
# maps each entry to its GI50

MOLECULE	GI50
Cc1nn(C(=O)c2ccccc2O)c2c1C(c1ccccc1O)SC(=N)N2 (stereo unspecified)	6.1 µM (inactive)
CC(NC1=NCCO1)c1ccco1 (stereo unspecified)	> 100 µM (inactive)
COc1cc2c(cc1OC)C/C(=N\O)c1cc(OC)c(OC)cc1/C=C\2	6.4 µM (inactive)
O=C(N/N=C(COc1cccc(Cl)c1)\N=C\c1ccncc1)c1ccncc1	> 100 µM (inactive)
CC(C)Cc1c(C#N)c(C#N)c(N)n1Cc1ccccc1	> 100 µM (inactive)
CCN(CC(=O)O)C(=O)c1cccnc1	> 100 µM (inactive)
CC(C)[C@@H]1C=C(c2ccccc2)c2ccccc2C1C(C#N)(C#N)C(C)C (stereo partly specified)	> 100 µM (inactive)
O=C(O)CCN1C(=S)CSC1=S	94.4 µM (inactive)
CC(=O)NNc1nc(C)c(C(/C=C/c2ccc3c(c2)OCO3)=N/Nc2ccccc2)s1	> 100 µM (inactive)
C[N+]1(C(CO)Cc2c[nH]c3ccccc23)Cc2ccccc2C1 (stereo unspecified)	> 100 µM (inactive)
CC1(Cl)C(=O)NC(=O)N([C@H]2C[C@H](O)[C@@H](CO)O2)C1N=[N+]=[N-] (stereo partly specified)	> 100 µM (inactive)

---

# maps each entry to its GI50
Test system: OVCAR-3
METHOD_NOTES: NCI tumour cell line growth inhibition, 48 h
Active and inactive are the calls of the source. Cut-off read from the data, not from the text of the source: active = GI50 up to about 1.1 µM and inactive = higher.
ENDPOINT_NAME: GI50

COMPOUND	REPORTED
CC1(C)[C@@H](Cn2cnc3c(N)ncnc32)CC[C@@]1(C)CO	73.6 µM (inactive)
COc1ccc(-c2c(-c3ccccc3)c(C)nc3[nH]c(=S)[nH]c(=S)c23)cc1OC	20.3 µM (inactive)
COc1ccc2c(c1)C(=O)CC(C(N)=O)C2 (stereo not drawn)	> 100 µM (inactive)
CC(=O)C1C(=O)C(=O)N(CCN2C(=O)C(=O)C(C(C)=O)C2=O)C1=O (stereo not drawn)	> 100 µM (inactive)
N=C1/C(=C/c2ccc(F)cc2)C(=O)N=C2SC=NN12	> 100 µM (inactive)
CC(=O)/C(=C\c1ccc(Cl)c(Cl)c1)C(=O)C(C)CN(C)C (stereo not drawn)	4.1 µM (inactive)
COc1ccc(CC2NCCc3c2[nH]c2ccccc32)cc1 (stereo not drawn)	64.6 µM (inactive)
C=C1C(=O)OC2C1C(OC(=O)/C(C)=C/C)CC(O)(CCl)C1C(OC(C)=O)C=C(C)C21O (stereo not drawn)	8.93 µM (inactive)
C[C@@H](NC1CCC[C@@H]1O)c1ccccc1 (stereo partly drawn)	> 100 µM (inactive)
O=C(NN=C1NCCCCN1)Nc1ccc(Cl)cc1	> 100 µM (inactive)
NCCCCN(CCCN)C(=O)c1ccccc1	> 100 µM (inactive)
COc1cccc(C2c3cc4c(cc3OC(N3CCCCC3)C2C)OCO4)c1O (stereo not drawn)	2.93 µM (inactive)
Clc1ccccc1C(Nc1ncccn1)Nc1ncccn1	> 100 µM (inactive)
O=C1/C(=C\c2ccc(Br)cc2)CCCc2ccccc21	20.8 µM (inactive)
O=C(NCCCOC(=O)CCCCCCCCC(=O)OCCCNC(=O)NC(=O)c1c[nH]c(=O)[nH]c1=O)NC(=O)c1c[nH]c(=O)[nH]c1=O	> 100 µM (inactive)
CCOC(=O)c1csc(NC(=O)C(C)N2CCCC2)n1 (stereo not drawn)	> 100 µM (inactive)
CC(=O)NC1CC2Oc3ccc(C)cc3C(C)(O2)C1O (stereo not drawn)	> 100 µM (inactive)
Nc1nc(O)c2ncn(C3OC(CO)C(O)C3O)c2n1 (stereo not drawn)	23.2 µM (inactive)
O=C1/C(=C/c2ccccc2)CCc2ccc([N+](=O)[O-])cc21	> 100 µM (inactive)
COc1c(C2=NC(C(C)C)CO2)ccc2ccccc12 (stereo not drawn)	37.2 µM (inactive)
C1CCNCC1.Oc1ncnc2[nH]cc(CN3CCCCC3)c12	> 100 µM (inactive)
COc1cc(C=O)cc(/C=N/c2ccc(Br)cc2)c1O	13.5 µM (inactive)
C=C(C)c1cc(C(C)(C)C)cc(C(=C)C)c1S(C)(=O)=O	> 100 µM (inactive)

---

# maps each entry to its GI50
Test system: SNB-75
METHOD_NOTES: NCI tumour cell line growth inhibition, 48 h
Active and inactive are the calls of the source. Rule as the data show it: active = GI50 up to about 1.1 µM and inactive = higher.
ENDPOINT_NAME: GI50

COMPOUND	EXPERIMENTAL_SYSTEM	REPORTED
FC(F)(F)c1ccc2c(c1)N(CCCNCCN1CCOCC1)c1ccccc1S2	SNB-75	7.13 µM (inactive)
COc1nc2c(c(=O)[nH]1)N=C(c1ccc(Cl)cc1)CC(c1ccccc1)N2 (stereo not given)	SNB-75	20.8 µM (inactive)
CN1CCC2(CC1)/C(=N/C1CCCCC1)NC(=S)N2c1ccccc1	SNB-75	> 100 µM (inactive)
CC(C)OP(=O)(OC(C)C)C(C(C)C)N(C)/C(N)=N/C#N (stereo not given)	SNB-75	> 100 µM (inactive)
C/C1=C\C=C(\C(C)C)CC/C(C(=O)O)=C\CC/C(C)=C/CC1 [NEOCROTOCEMBRANEIC ACID]	SNB-75	33.7 µM (inactive)

---

Tested on: NCI-H460
METHOD_NOTES: NCI tumour cell line growth inhibition, 48 h
Active and inactive are the calls of the source. No stated cut-off is given here; in the data, active = GI50 up to about 1.1 µM and inactive = higher.

MOLECULE	GI50
O=C1C2CCN(CC2)C1(CO)CO	66.7 µM (inactive)
C[N+]1(C(CO)Cc2c[nH]c3ccccc23)Cc2ccccc2C1 (stereo not given)	> 100 µM (inactive)
C/C(CN1C(=O)c2ccccc2C1=O)=N\NS(=O)(=O)c1ccc(Cl)cc1	> 100 µM (inactive)
NS(=O)(=O)c1nnc(NC(=O)C23CC4CC(CC(C4)C2)C3)s1	60.1 µM (inactive)
O=C(Nc1ccc(/N=N/c2ccccc2)cc1)Sc1ccccc1C(=O)O	> 100 µM (inactive)
N/N=c1/nc2n(c3ncccc13)C=CNN2	> 100 µM (inactive)
O=c1[nH]nc(-c2ccccc2)n1/N=C/c1cccs1	36.3 µM (inactive)
O=C1/C(=C\c2ccc(Br)cc2)CCCc2ccccc21	17 µM (inactive)
Nc1ccc(C2NC(=O)Cc3c2ccc2ccccc32)cc1 (stereo not given)	71.1 µM (inactive)
C[C@H]1CC(=O)C[C@@H]2CC[C@@H]3[C@H](CC[C@]4(C)C(OC(=O)c5cccc6c(=O)c7ccccc7[nH]c56)CC[C@@H]34)[C@]21C (stereo not given in full)	26.7 µM (inactive)

---

# maps each entry to its GI50
Tested on: SF-539
METHOD_NOTES: NCI tumour cell line growth inhibition, 48 h
Activity calls are given as the source filed them. Rule as the data show it: active = GI50 up to about 1.1 µM and inactive = higher.

MOLECULE	GI50
CCOC(=O)c1c(N2CCCC2)[nH]c(=O)c(C(c2cccs2)c2c(O)c(C(=O)OCC)c(N3CCCC3)[nH]c2=O)c1O	> 100 µM (inactive)
[O-][S+]1c2ccccc2N=C(c2ccc(Cl)cc2)CC1c1cccs1 (centres undefined)	16.7 µM (inactive)
COC(=O)C1=C(OC(=O)/C=C/c2ccc(Cl)cc2)C(C(=O)OC)[C@]2(O)[C@@H](C(=O)OC)[C@H]1C[C@@H](c1ccccc1)[C@@H]2C(=O)OC (some centres undefined)	4.68 µM (inactive)
Cc1ccc(Nc2nc3c(s2)C(=O)c2ccccc2C3=O)cc1	5.35 µM (inactive)

---

Tested on: 786-0
METHOD_NOTES: NCI tumour cell line growth inhibition, 48 h
Active and inactive are the calls of the source. Cut-off read from the data, not from the text of the source: active = GI50 up to about 1.1 µM and inactive = higher.
# maps each entry to its GI50
ENDPOINT_NAME: GI50

COMPOUND	REPORTED
C[N+]1(C(CO)Cc2c[nH]c3ccccc23)Cc2ccccc2C1 (stereo unspecified)	> 100 µM (inactive)
CC(C)(C)c1cc(C(=O)/C=C/C=C/c2ccccc2)cc(C(C)(C)C)c1O	17.1 µM (inactive)
COc1cccc(/C=N/n2c(Cc3ccccc3)n[nH]c2=O)c1	50.1 µM (inactive)
CCC(C)(O)c1cn(-c2ccc(Cl)cc2)nn1 (stereo unspecified)	> 100 µM (inactive)
O=C1CC(c2c[nH]c3ccccc23)C(=O)N1 (stereo unspecified)	> 100 µM (inactive)
COc1ccccc1CC(C)N (stereo unspecified)	> 100 µM (inactive)
NCCCCN(CCCN)C(=O)c1ccccc1	> 100 µM (inactive)
CCOC(=O)Nc1ccc(S(=O)(=O)OC)cc1.CCOC(=O)Nc1ccc(S(=O)(=O)OC)cc1.Nc1ncnc2c1ncn2C1OC(CO)C(O)C1O (stereo unspecified)	21.5 µM (inactive)
O=C(NCCCOC(=O)CCCCCCCCC(=O)OCCCNC(=O)NC(=O)c1c[nH]c(=O)[nH]c1=O)NC(=O)c1c[nH]c(=O)[nH]c1=O	> 100 µM (inactive)
COc1ccc2oc(=N)c(C(=O)Nc3ccccn3)cc2c1	> 100 µM (inactive)
C=C1C(=O)OC2C1C(OC(=O)/C(C)=C/C)CC(O)(CCl)C1C(OC(C)=O)C=C(C)C21O (stereo unspecified)	11.6 µM (inactive)

Reference source: ChEMBL document CHEMBL1201862
